# Assay Text: Cell Viability - LYMP2-022 (AID 987);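 further: cells exposed to compound for 24 hr; nearly all actives have a fitted effect of over 55% in size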
# Measurement Conditions: LYMP2-022 lymphoblastoid cell viability; series mostly up to 92.2 µM
Records with an inconclusive call do not appear. Activity calls are given as the source filed them. The call rests on the fitted dose curve; in most records, active means well fitted cell-killing curve with a large enough effect; inconclusive means small, poorly fitted or top-dose-only effect; inactive means flat fitted curve, though single readings scatter.
Outcomes: active, inactive

{"Compound": "CCCCCCCCCCCOC(=O)c1ccccc1C(=O)OCCCCCCCCCCC", "Qualitative Label": "inactive"}
{"Compound": "CCN(CC)CCO", "Qualitative Label": "inactive"}
{"Compound": "CC(C)(C)c1ccccc1O", "Qualitative Label": "inactive"}
{"Compound": "N#CCc1ccccc1", "Qualitative Label": "inactive"}
{"Compound": "OCCCCO", "Qualitative Label": "inactive"}
{"Compound": "c1ccc(OCC2CO2)cc1 (stereo unspecified)", "Qualitative Label": "inactive"}
{"Compound": "C=CCc1cc(OC)c2c(c1)OCO2", "Qualitative Label": "inactive"}
{"Compound": "ClC(Cl)(Cl)C(Cl)(Cl)Cl", "Qualitative Label": "inactive"}
{"Compound": "C=CC(=O)OCC(C)C", "Qualitative Label": "inactive"}
{"Compound": "Cc1ccc(N)cc1C", "Qualitative Label": "inactive"}
{"Compound": "ClCC(Cl)CCl", "Qualitative Label": "inactive"}
{"Compound": "Clc1ccc(C(Cl)(Cl)Cl)cc1Cl", "Qualitative Label": "inactive"}
{"Compound": "CCCCC#N", "Qualitative Label": "inactive"}
{"Compound": "CCOC(=O)CC(SP(=O)(OC)OC)C(=O)OCC (stereo unspecified)", "Qualitative Label": "inactive"}
{"Compound": "CCN(CC)N=O", "Qualitative Label": "inactive"}
{"Compound": "O=C(O)C(Cl)(Cl)Br", "Qualitative Label": "inactive"}
{"Compound": "ClC(Cl)Br", "Qualitative Label": "inactive"}
{"Compound": "N#CC(O)c1ccccc1 (stereo unspecified)", "Qualitative Label": "inactive"}
{"Compound": "CN(C)C(=O)Nc1ccc(Cl)cc1", "Qualitative Label": "inactive"}
{"Compound": "Clc1ccccc1", "Qualitative Label": "inactive"}
{"Compound": "Oc1cccc(Cl)c1Cl", "Qualitative Label": "inactive"}
{"Compound": "Nc1ccc(-c2ccc(N)cc2)cc1", "Qualitative Label": "inactive"}
{"Compound": "Cc1ccc(N)cc1Cl", "Qualitative Label": "inactive"}
{"Compound": "CN(C)c1ccc(N(C)C)cc1", "Qualitative Label": "active"}
{"Compound": "O=C(O)CCl", "Qualitative Label": "inactive"}
{"Compound": "CC(C)CON=O", "Qualitative Label": "inactive"}
{"Compound": "C/C=C/CC#N", "Qualitative Label": "inactive"}
{"Compound": "CC(C)(Cl)Cl", "Qualitative Label": "inactive"}
{"Compound": "Cc1ccc2c(c1N)C(=O)c1ccccc1C2=O", "Qualitative Label": "inactive"}
{"Compound": "COC(=O)Nc1nc2ccccc2[nH]1", "Qualitative Label": "inactive"}
{"Compound": "Cc1cc(Cl)ccc1O", "Qualitative Label": "inactive"}
{"Compound": "Nc1ccc2ccccc2c1", "Qualitative Label": "inactive"}
{"Compound": "ClCc1ccccc1", "Qualitative Label": "inactive"}
{"Compound": "Cc1coc2c1CCC(C)C2 (stereo unspecified)", "Qualitative Label": "inactive"}
{"Compound": "ClCc1ccccn1", "Qualitative Label": "inactive"}
{"Compound": "CC12CC1(C)C(=O)N(c1cc(Cl)cc(Cl)c1)C2=O (stereo unspecified)", "Qualitative Label": "inactive"}
